Entries and their koff values follow.
Tested on: T1, recombinant human IL-23 (human, UniProt Q9NPF7 20-189; P29460 23-328)
T1 construct: also called hIL-23
T1 sequence 1: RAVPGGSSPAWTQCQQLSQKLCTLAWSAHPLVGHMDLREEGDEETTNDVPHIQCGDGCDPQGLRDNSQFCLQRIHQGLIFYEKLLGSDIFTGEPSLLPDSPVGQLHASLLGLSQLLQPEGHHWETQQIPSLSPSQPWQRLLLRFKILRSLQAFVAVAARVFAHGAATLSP
T1 sequence 2: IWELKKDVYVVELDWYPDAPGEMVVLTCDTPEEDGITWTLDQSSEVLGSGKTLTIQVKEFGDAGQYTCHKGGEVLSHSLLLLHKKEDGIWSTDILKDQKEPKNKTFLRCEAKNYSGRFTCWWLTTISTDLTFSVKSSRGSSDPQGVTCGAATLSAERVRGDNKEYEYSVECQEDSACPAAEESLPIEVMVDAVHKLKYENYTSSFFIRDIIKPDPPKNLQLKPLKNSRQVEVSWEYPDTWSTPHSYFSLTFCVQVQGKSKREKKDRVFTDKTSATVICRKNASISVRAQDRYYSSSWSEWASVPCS
Measurement description: SPR (Biacore T100), tissue culture supernatant antibody captured on anti-human IgG, IL-23 analyte
Quantity kind: koff

1. A7M4 (antibody, human IgG1, kappa, V domains shown, Full length chains) VH: QVQLVQSGAEVKKPGSSVKVSCKASGYTFTSYGITWVRQAPGQGLEWMGEDYPRSGNTYYNEKFKGRVTITADKSTSTAYMELSSLRSEDTAVYYCARSEFISTVVAPYYYALDYWGQGTLVTVSS VL: DIVMTQSPDSLAVSLGERATINCKASKKVTIFGSTSALHWYQQKPGQPPKLIYNGAKPESGVPDRFSGSGSGTDFTLTISSLQAEDVAVYYCLQNKEVPYTFGGGTKVEIKR | 0.000123 s⁻¹
2. A12M3 (antibody, V domains shown) VH: QVQLVQSGAEVKKPGSSVKVSCKASGYTFASYGITWVRQAPGQGLEWMGENYPRSGNTYYNEKFKGRVTITADKSTSTAYMELSSLRSEDTAMYYCARVEFISTVVAPYYYALDYWGQGTLVTVSS VL: DIVMTQSPDSLAVSLGERATINCKASKKVTIFGSTSALHWYQQKPGQPPKLIYNGAKLESGVPDRFSGSGSGTDFTLTISSLQAEDVAVYYCLQNKEVPYTFGGGTKVEIK | 0.000202 s⁻¹
3. A5M4 (antibody, human IgG1, kappa, V domains shown, Full length chains) VH: QVQLVQSGAEVKKPGSSVKVSCKASGYTFTSYGITWVRQAPGQGLEWMGENYPRSGNTYYNEKFKGRVTITADKSTSTAYMELSSLRSEDTAVYYCARAEFISTVVAPYYYALDYWGQGTLVTVSS VL: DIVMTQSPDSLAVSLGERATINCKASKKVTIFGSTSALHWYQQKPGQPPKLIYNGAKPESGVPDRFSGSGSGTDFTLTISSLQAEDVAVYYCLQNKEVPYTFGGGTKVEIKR | 0.000101 s⁻¹
